# tested on: LYNb (Homo sapiens, UniProt P07948)
# Construct: purchased Carna Biosciences
# Sequence (P07948 1-491 isoform P07948-2): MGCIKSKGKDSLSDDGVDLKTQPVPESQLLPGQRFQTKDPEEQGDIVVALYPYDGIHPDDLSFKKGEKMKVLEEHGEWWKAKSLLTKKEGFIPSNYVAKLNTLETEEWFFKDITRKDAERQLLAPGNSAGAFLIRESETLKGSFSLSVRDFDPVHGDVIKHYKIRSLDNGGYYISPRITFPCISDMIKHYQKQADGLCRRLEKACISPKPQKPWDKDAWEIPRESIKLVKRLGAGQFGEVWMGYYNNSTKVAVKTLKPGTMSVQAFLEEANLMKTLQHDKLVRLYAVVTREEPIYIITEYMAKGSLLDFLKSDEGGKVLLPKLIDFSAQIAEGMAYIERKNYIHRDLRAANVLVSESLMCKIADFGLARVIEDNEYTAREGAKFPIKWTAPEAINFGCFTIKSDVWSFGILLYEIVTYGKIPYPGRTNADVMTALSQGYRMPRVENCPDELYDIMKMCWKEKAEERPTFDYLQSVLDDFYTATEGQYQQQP
# protocol details: Off-chip Mobility Shift Assay (MSA) kinase inhibition
# Type: biochemical
# conditions: inhibitor concentration 0.1 μM
The entries below come with measured inhibition at 0.1 µM values attached.

INSERT INTO assay_data (compound, experimental_value) VALUES
  ('O=C(c1c(F)ccc(NS(=O)(=O)CCCO)c1F)c1c[nH]c2ncc(-c3ccc(Cl)cc3)cc12 [200-17]', '> 50%'),
  ('CC(=O)CS(=O)(=O)Nc1ccc(F)c(C(=O)c2c[nH]c3ncc(-c4ccc(Cl)cc4)cc23)c1F [200-117]', '> 30%'),
  ('O=C(c1c(F)ccc(NS(=O)(=O)CC(O)CO)c1F)c1c[nH]c2ncc(-c3ccc(Cl)cc3)cc12 (stereo not shown) [200-73]', '< 30%');

// moving on: another record for inhibition at 0.1 µM
What is its inhibition at 0.1 µM for LYNb (Homo sapiens, UniProt P07948)? Entry: CC(O)CS(=O)(=O)Nc1ccc(F)c(C(=O)c2c[nH]c3ncc(-c4ccc(Cl)cc4)cc23)c1F (stereo not shown) [200-115]
< 30%
